Cited source: patent US20210171616A1

# Measured On: T1, N-terminal biotinylated PACAP27 (custom synthesis, CPC Scientific) (human, N-terminal biotin; L at residue 27 modified by C-terminal amidation (as stated for SEQ ID NO 14))
# T1 construct: Custom peptide; also called Antigen (PACAP27)
# T1 peptide: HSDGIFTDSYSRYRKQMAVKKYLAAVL
# Protocol Notes: kinetic exclusion 96-well MSD plate assay, solution equilibrium at 37 C, 30 pM biotinylated antigen
Below, each entry is listed with its recorded pKd.
// returns pKd (minus log10 of molar concentration), number only

Solved entries (count: 3):
Binder	pKd
Exemplified Antibody C (antibody, human IgG4 S228P, kappa, F234A L235A, V domains shown, IgG4, kappa light chain; also called Exemplified Ab C; Ab C) VH: EVQLLESGGGLVQPGGSLRLSCAASGFTFSSYYMSWVRQAPGKGLEWVSAISLSGGSTYYAESHKGRFTISRDNSKNTLYLQMNSLRAEDTAVYYCVREVGASTHNYYGMDVWGQGTMVTVSS VL: DIQMTQSPSSLSASVGDRVTITCRASQSIWRWLAWYQQKPGKAPKLLIHDASQLFEGVPSRFSGSGSGTDFTFTISSLQPEDIATYYCQQFDLLPLTFGGGTKVEIKR	10.84
Exemplified Antibody B (antibody, human IgG4 S228P, kappa, F234A L235A, V domains shown, IgG4, kappa light chain; also called Exemplified Ab B; Ab B) VH: EVQLLESGGGLVQPGGSLRLSCAASGFTFSSYYMSWVRQAPGKGLEWVSAISLSGGSTYYAASHKGRFTISRDNSKNTLYLQMNSLRAEDTAVYYCVREVGASTHNYYGMDVWGQGTMVTVSS VL: DIQMTQSPSSLSASVGDRVTITCRASQSIWRWLAWYQQKPGKAPKLLIHDASQLFEGVPSRFSGSGSGTDFTFTISSLQPEDIATYYCQQFDLLPLTFGGGTKVEIKR	10.94
Exemplified Antibody D (antibody, human IgG4 S228P, kappa, F234A L235A, V domains shown, IgG4, kappa light chain; also called Exemplified Ab D; Ab D) VH: EVQLLESGGGLVQPGGSLRLSCAASGFTFSSYYMSWVRQAPGKGLEWVSAISLSGGSTYYAQSHKGRFTISRDNSKNTLYLQMNSLRAEDTAVYYCVREVGASTHNYYGMDVWGQGTMVTVSS VL: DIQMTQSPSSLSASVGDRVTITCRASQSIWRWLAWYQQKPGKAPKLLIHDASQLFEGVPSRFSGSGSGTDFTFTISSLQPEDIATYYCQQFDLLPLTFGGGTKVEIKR	10.98

// next item, pKd requested
### Prompt Which pKd value belongs to Exemplified Antibody A (antibody, human IgG4 S228P, kappa, F234A L235A, V domains shown, IgG4, kappa light chain; also called Exemplified Ab A; Ab A) VH: EVQLLESGGGLVQPGGSLRLSCAASGFTFSSYYMSWVRQAPGKGLEWVSAISLSGGSTYYADSHKGRFTISRDNSKNTLYLQMNSLRAEDTAVYYCVREVGASNHNYYGMDVWGQGTMVTVSS VL: DIQMTQSPSSLSASVGDRVTITCRASQSISRWLAWYQQKPGKAPKLLIHDASQLLEGVPSRFSGSGSGTDFTFTISSLQPEDIATYYCQQFDLLPLTFGGGTKVEIKR ?
### Response 10.43
